- assay.notes: Pharmacokinetics in mice after single s.c. or oral dose
- Assay type: in vivo, female CD1 mice
- condition.notes: female, CD1, mouse, sc, 40 mg/kg, single dose, plasma
measurement.name: AUC (µM·h)
Kindly answer with a numeric value in µM·h, unit omitted.

Consider the molecule Clc1ccc(C(=C2C3CC4CC(C3)CC2C4)c2ccc(OCCCCCCN3CCCC3)cc2)cc1 and give its recorded AUC.
34.7

Please supply the value of reported AUC for the item C[N+]1(CCCCCCOc2ccc(C(c3ccc(Cl)cc3)=C3C4C[C@H]5C[C@@H](C4)C[C@H]3C5)cc2)CCCC1
158

Report AUC for CC[N+](C)(CC)CCCCCCOc1ccc(C(=C2C3CC4CC(C3)CC2C4)c2ccc(OCCCCCC[N+](C)(CC)CC)cc2)cc1
746
